Entries and their kon values follow.
target: T1, Human PD-1-His protein (Cat. #10377H08H, Sino Biological) (human, UniProt Q15116 25-167); experiment: SPR (Biacore), antibody captured on Protein A chip, PD-1 in flow
T1 construct: Bought protein; also called hPD-1-His; hu PD-1-his; not shown: His tag of the bought protein
T1 sequence (Q15116 25-167 limits assumed): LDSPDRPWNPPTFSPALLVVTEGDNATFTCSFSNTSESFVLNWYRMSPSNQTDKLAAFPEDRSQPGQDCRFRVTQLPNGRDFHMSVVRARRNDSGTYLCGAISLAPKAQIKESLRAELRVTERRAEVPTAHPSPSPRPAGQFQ
Dear colleague, please return just the value in M⁻¹ s⁻¹, with no unit written.

Examples with answers:
Task item: Report measured kon; entry is Hu23-12.IgG4AA (antibody, V domains shown, Full-length IgG4-AA, kappa; also called Hu23LCDR1 (N28D)) VH: EVQLVQSGAEVKKPGSSVKVSCKASGGTFSDYEMHWVRQAPGQGLEWMGLIDPETGGTVYNQKFKDRVTITADKSTSTAYMELSSLRSEDTAVYYCARERFSYYGSTSDWYFDVWGQGTTVTVSS VL: DIVMTQTPLSLPVTPGEPASISCRSSQSLVHSDGNTYLEWYLQKPGQSPQLLIYKVSNRFSGVPDRFSGSGSGTDFTLKISRVEAEDVGVYYCFQGSHVPYTFGGGTKVEIKR
Reply: 54500

Task item: Report measured kon; entry is Hu32a-57.IgG4AA (antibody, V domains shown, Full-length IgG4-AA, kappa) VH: EVQLVQSGAEVKKPGSSVKVSCKASGFTFSDYEIHWVRQAPGQGLEWIGLFDPETGGIVYNQKFKGRATLTADKSTSTAYMEFSSLRSEDTAVYYCTREGYNRDWYFDVWGQGTTVTVSS VL: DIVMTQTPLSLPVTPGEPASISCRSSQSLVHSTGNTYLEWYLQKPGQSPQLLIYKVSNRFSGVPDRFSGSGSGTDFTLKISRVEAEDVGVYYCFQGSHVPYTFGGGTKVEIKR
Reply: 79400

Task item: Report measured kon; entry is murine antibody M23 (antibody, V domains shown) VH: QVQLQQSGAELVRPGASVTLSCKASGYTFTDYEMHWVKQTPIHGLEWIGLIDPETGGTVYNQKFKDKTILTADKSSSTAYMEFRSLTSEDSAVYHCTRERFSYYGSTSDWYFDVWGTGTTVTVSS VL: DGLMTQTPLSLPVSLGDHASISCRSSQSLVHSNGNTYLEWYLQKPGQSPKLLIYKVSNRFSGVPDRFSGSGSGTDFTLKISRVEAEDLGIYYCFQGSHVPYTFGGGTKLEIK
Reply: 45700

Next:
Task item: Report measured kon; entry is murine antibody M32 (antibody, V domains shown) VH: QVQLQQSGAELVRPGASVTLSCKASDFTFTDYEIHWVKQTPVHGLEWIGLFDPETGGIVYNQKFKGKAILTADKSSNTAYMEFRSLTSEDSAVYYCTREGYNRDWYFDVWGTGTTVTVSS VL: DVLMTQTPLSLPVSLGDQASISCRSSQSIVHSNGNTYLEWYLQKPGQSPKLLIYKVSNRFSGVPDRFSGSGSGTDFTLKISRVEAEDLGIYYCFQGSHVPYAFGGGTKLEIK
Reply: 78300

Task item: Report measured kon; entry is Hu33-7.IgG4AA (antibody, V domains shown, Full-length IgG4-AA, kappa) VH: EVQLVESGGGLVQPGGSLRLSCAASGFTFSSYAMSWVRQAPGKGLEWVATISGGGVDTYYQDNVQGRFTISRDNAKNSLYLQMNSLRAEDTAVYYCARPYGHGYFDVWGQGTTVTVSS VL: DIQMTQSPSSLSASVGDRVTITCRASQDINNFLNWYQQKPGGAVKLLIYYTSSLHSGVPSRFSGSGSGTDYTLTISSLQPEDFATYYCQQGNTLPWTFGGGTKVEIKR
Reply: 76900

Task item: Report measured kon; entry is Hu32a-15.IgG4AA (antibody, V domains shown, Full-length IgG4-AA, kappa) VH: EVQLVQSGAEVKKPGSSVKVSCKASGGTFSDYEIHWVRQAPGQGLEWMGLFDPETGGIVYNQKFKGRVTITADKSTSTAYMELSSLRSEDTAVYYCAREGYNRDWYFDVWGQGTTVTVSS VL: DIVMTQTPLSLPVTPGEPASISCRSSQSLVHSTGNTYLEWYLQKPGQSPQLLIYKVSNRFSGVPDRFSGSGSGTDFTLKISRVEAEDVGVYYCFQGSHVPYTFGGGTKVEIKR
Reply: 48900
